Give measured CDMF75 IC15 for each item. Keep answers brief.
Target: bovine cardiac myofibrils (full-length cardiac myosin ATPase in the native sarcomere) (Bos taurus (Bovine))
Experiment: Skinned bovine cardiac myofibril ATPase assay (PK/LDH-coupled)
Type: biochemical
Conditions: Ca2+ activating to 75% of maximal rate, concentration giving 15% inhibition
Protocol: To evaluate the effect of compounds on the ATPase activity of full-length cardiac myosin in the context of the native sarcomere, skinned myofibril assays were performed. […] Small molecule agents were assessed for their ability to inhibit the steady-state ATPase activity of bovine cardiac myofibrils using pyruvate kinase and lactate dehydrogenase (PK/LDH)-coupled enzyme system. This assay regenerates myosin-produced ADP into ATP by oxidizing NADH, producing an absorbance change at 340 nm. […]

## Input Fill in the blank: the reported CDMF75 IC15 of `O=C(N[C@@H]1CCc2cc(-c3noc(C(F)F)n3)ccc21)C1CCCC1` is ____.
## Output 39200 nM

## Input Please look up its CDMF75 IC15: `Cc1n[nH]cc1C(=O)N[C@@H]1CCc2cc(-c3noc(C(C)C)n3)ccc21`
## Output 400 nM

## Input Endpoint output: CDMF75 IC15 of `O=C(NC1CCC1)N[C@@H]1CCc2cc(-c3noc(C(F)F)n3)ccc21` . Value?
## Output 39200 nM

## Input // lookup CDMF75 IC15 for COCc1nc(-c2ccc3c(c2)CC[C@H]3NC(=O)c2cc(CO)ccn2)no1 [Compound 673]
## Output 2800 nM

## Input Looking for the measured CDMF75 IC15 of CCc1nc(-c2ccc3c(c2)CC[C@H]3NC(=O)c2nnc(C)o2)no1 [Compound 618] , can you help?
## Output 300 nM

## Input Quick check: CDMF75 IC15 of COCc1nc(-c2ccc3c(c2)OCC3NC(=O)c2cc(C)nn2C)no1 (stereo not shown) ?
## Output 1200 nM

## Input Report CDMF75 IC15 for `COCc1nc(-c2ccc3c(c2)CC[C@H]3NC(=O)OC)no1` please.
## Output 900 nM

## Input Fill in: CDMF75 IC15 of Cc1nc(-c2ccc3c(c2)CCC3NC(=O)c2nocc2C)no1 (stereo not shown) is ___
## Output 2200 nM

## Input What CDMF75 IC15 value was documented for this compound, Cc1nc(-c2ccc3c(c2)CCC3NC(=O)c2cnn(C)c2C)no1 (stereo not shown) ?
## Output 2200 nM

## Input Param item = `[2H]C([2H])([2H])c1nc(-c2ccc3c(c2)CC[C@H]3NC(=O)c2oncc2C)no1` ; retrieve measured CDMF75 IC15.
## Output 400 nM

## Input Which CDMF75 IC15 is listed for Cc1cc(C(=O)NC2CCc3cc(-c4cc(C(F)F)on4)ccc32)ccn1 (stereo not shown) ?
## Output 1100 nM

## Input Item under review: `[2H]C([2H])([2H])c1nc(-c2ccc3c(c2)CC[C@H]3NC(=O)c2cc(C)nn2C)no1` . Reported CDMF75 IC15?
## Output 800 nM

## Input Item CCc1nc(-c2ccc3c(c2)CC[C@H]3NC(=O)c2ccc(=O)[nH]c2)no1 [Compound 604] has what recorded CDMF75 IC15?
## Output 300 nM

## Input May I ask what CDMF75 IC15 has been recorded for `Cc1cc(-c2ccc3c(c2)OC[C@H]3NC(=O)c2cn[nH]c2C)no1` ?
## Output 700 nM

## Input Give the measured CDMF75 IC15 of `Cn1nccc1C(=O)N[C@@H]1CCc2cc(-c3nccs3)ccc21` .
## Output 3800 nM

## Input # input compound: `O=C(N[C@@H]1CCc2cc(-c3noc(C4CCC4)n3)ccc21)c1nn[nH]n1` ; wanted: its CDMF75 IC15
## Output 6500 nM

## Input Which CDMF75 IC15 is reported for this compound? `CCc1nc(-c2cc(F)c3c(c2)CC[C@H]3NC(=O)c2cnn(C)c2)no1`
## Output 400 nM

## Input Fill in: CDMF75 IC15 of `Cn1nccc1C(=O)N[C@@H]1CCc2cc(C#CC3CC3)ccc21` is ___
## Output 2300 nM

## Input Field request: CDMF75 IC15 | item: `CCc1nc(-c2ccc3c(c2)CC[C@H]3NC(=O)c2cnn(CC3(F)COC3)c2)no1`
## Output 2600 nM

## Input So what does the record say about CDMF75 IC15 for `Cc1cc(C(=O)N[C@@H]2COc3cc(-c4noc(C)n4)cnc32)ccn1` ?
## Output 5300 nM

## Input Consider the compound `[2H]C([2H])([2H])c1noc(-c2ccc3c(c2)OC[C@H]3NC(=O)c2cnn(C)c2C)n1` and give its measured CDMF75 IC15.
## Output 1900 nM

## Input Query: CDMF75 IC15; subject: `CCc1nc(-c2ccc3c(c2)CC[C@H]3NC(=O)C(F)F)no1`
## Output 600 nM

## Input Entry under review: CC(=O)OCc1nc(-c2ccc3c(c2)CCC3NC(=O)c2cn(C)nc2C)no1 (stereo not shown) . Reported CDMF75 IC15?
## Output 22300 nM

## Input I am curious: what CDMF75 IC15 value has been reported for `CCc1nc(-c2ccc3c(c2)CC[C@H]3NC(=O)c2cccc(C)n2)no1` ?
## Output 1400 nM

## Input # query: CDMF75 IC15 of entry `CCc1nc(-c2ccc3c(c2)CC[C@H]3NC(=O)c2nnc(C)s2)no1`
## Output 600 nM

## Input Entry Cc1ncc(C(=O)NC2CCc3cc(-c4noc(C(F)F)n4)ccc32)o1 (stereo not shown) : reported CDMF75 IC15 = ?
## Output 1400 nM

## Input Param item = `CCc1nc(-c2ccc3c(c2)CC[C@H]3NC(=O)c2ccnn2C)no1` ; retrieve measured CDMF75 IC15.
## Output 300 nM

## Input Could you share which CDMF75 IC15 value was measured for `Cc1cc(-c2ccc3c(c2)OC[C@H]3NC(=O)c2nnn(C)n2)no1` ?
## Output 1600 nM

## Input Bench note: what CDMF75 IC15 did Cc1cc(C(=O)NC2CCc3cc(-c4coc(C)n4)ccc32)ccn1 (stereo not shown) show?
## Output 39200 nM

## Input Need CDMF75 IC15 of `[2H]C([2H])([2H])c1nc(-c2ccc3c(c2)CC[C@H]3NC(=O)c2ccnn2C)no1` , thanks.
## Output 500 nM

## Input What CDMF75 IC15 value was documented for this compound, Cc1csc(C(=O)NC2CCc3cc(-c4noc(C)n4)ccc32)n1 (stereo not shown) ?
## Output 2300 nM

## Input Look up CDMF75 IC15: `CCc1nc(-c2ccc3c(c2)OCC[C@H]3NC(=O)c2ccnn2C)no1`
## Output 400 nM

## Input I have this compound here, Cc1nc(-c2ccc3c(c2)OC[C@H]3NC(=O)c2ccnc(C(C)O)c2)no1 (stereo partly shown) , and I need its recorded CDMF75 IC15.
## Output 2100 nM

## Input Query (compound): `CCc1cc(-c2ccc3c(c2)CC[C@H]3NC(=O)c2ccnn2C)no1` ; field requested: CDMF75 IC15
## Output 200 nM

----------
biological target: bovine cardiac myofibrils (full-length cardiac myosin ATPase in the native sarcomere) (Bos taurus (Bovine), UniProt Q9BE39); assay: Skinned bovine cardiac myofibril ATPase assay (PK/LDH-coupled); assay type: biochemical; conditions: Ca2+ activating to 75% of maximal rate, concentration giving 15% inhibition
Sequence (Q9BE39 whole entry): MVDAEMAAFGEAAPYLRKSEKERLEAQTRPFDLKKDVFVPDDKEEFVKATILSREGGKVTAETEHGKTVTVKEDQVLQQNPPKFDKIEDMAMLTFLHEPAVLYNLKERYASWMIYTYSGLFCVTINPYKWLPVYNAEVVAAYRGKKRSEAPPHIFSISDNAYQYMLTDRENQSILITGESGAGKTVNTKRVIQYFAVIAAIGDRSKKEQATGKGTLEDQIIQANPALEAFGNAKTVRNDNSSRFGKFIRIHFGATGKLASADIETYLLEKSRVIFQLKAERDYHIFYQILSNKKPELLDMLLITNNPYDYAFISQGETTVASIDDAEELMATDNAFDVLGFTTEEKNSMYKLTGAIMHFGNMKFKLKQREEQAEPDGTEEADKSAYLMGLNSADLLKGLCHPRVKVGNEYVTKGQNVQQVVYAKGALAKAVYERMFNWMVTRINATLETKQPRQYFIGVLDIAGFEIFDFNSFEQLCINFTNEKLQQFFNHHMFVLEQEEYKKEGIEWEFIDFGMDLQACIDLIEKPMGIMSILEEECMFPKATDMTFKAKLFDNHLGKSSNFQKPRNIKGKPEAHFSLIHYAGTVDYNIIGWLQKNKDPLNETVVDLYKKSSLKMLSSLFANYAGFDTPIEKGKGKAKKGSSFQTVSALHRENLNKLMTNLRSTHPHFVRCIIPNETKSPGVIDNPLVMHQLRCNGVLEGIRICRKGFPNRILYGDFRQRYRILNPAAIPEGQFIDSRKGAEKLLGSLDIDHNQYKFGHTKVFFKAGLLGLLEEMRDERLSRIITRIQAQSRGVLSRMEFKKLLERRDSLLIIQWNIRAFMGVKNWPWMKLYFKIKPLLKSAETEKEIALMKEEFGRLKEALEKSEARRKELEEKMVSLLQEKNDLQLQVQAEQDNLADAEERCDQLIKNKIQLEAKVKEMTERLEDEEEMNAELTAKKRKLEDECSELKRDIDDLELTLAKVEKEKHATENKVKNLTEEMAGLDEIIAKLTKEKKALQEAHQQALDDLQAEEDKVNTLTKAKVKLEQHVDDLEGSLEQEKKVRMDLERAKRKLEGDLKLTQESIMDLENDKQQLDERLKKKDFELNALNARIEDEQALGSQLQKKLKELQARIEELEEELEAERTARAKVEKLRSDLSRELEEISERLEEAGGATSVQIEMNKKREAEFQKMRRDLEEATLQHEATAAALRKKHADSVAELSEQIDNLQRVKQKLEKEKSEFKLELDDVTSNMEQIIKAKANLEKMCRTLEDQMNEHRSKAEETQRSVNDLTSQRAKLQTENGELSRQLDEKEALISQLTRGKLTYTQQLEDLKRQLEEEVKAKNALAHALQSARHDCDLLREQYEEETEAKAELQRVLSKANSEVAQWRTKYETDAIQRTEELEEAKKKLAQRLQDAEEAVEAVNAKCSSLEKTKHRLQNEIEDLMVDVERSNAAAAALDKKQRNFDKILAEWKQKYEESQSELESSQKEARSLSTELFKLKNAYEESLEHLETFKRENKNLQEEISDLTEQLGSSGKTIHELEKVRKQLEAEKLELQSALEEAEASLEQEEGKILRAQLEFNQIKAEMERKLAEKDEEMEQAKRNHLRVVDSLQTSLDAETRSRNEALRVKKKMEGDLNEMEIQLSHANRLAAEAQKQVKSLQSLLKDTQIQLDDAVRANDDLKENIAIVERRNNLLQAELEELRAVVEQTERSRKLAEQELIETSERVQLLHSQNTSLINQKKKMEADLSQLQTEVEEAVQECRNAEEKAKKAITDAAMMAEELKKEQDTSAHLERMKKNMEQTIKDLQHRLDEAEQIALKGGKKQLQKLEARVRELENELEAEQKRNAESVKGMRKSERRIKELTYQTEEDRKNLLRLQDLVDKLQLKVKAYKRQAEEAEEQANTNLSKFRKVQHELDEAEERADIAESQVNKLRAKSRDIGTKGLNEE
Sequence (P85100 whole entry partner): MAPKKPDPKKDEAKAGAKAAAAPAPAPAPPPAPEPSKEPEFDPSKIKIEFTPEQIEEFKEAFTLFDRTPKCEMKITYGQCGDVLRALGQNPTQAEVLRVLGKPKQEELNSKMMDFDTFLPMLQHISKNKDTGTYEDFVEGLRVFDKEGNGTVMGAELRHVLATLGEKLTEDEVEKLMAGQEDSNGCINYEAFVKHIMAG
Sequence (Q3SZE5 whole entry partner): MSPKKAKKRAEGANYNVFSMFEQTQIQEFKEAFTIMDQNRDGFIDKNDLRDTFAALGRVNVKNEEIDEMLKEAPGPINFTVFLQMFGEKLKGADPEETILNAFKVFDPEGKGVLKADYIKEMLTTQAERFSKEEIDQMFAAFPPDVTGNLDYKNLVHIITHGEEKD
Param threshold (4000 nM) applies to CDMF75 IC15; output criterion met when value >= threshold, criterion not met when value < threshold.

## Input Is the recorded value of CDMF75 IC15 equal to or greater than 4000 nM for this compound? CCc1nc(-c2ccc3c(c2)CC[C@H]3NC(=O)[C@@H]2CCC(=O)N2)no1 [Compound 337]
## Output criterion met

## Input Exam item: decide whether the reported CDMF75 IC15 for Cc1ncoc1C(=O)N[C@@H]1COc2cc(-c3noc(C4CC4)n3)ccc21 [Compound 456] is at least 4000 nM.
## Output criterion not met

## Input hey, is CDMF75 IC15 for this one >= 4000 nM? CCc1nc(-c2cnc3c(c2)CCC3NC(=O)c2ccnc(C)c2)no1 (centres unmarked) [Compound 108]
## Output criterion met

## Input hey, is CDMF75 IC15 for this one >= 4000 nM? Cc1nn(C)cc1C(=O)NC1COc2cc(-c3noc(C(F)F)n3)ccc21 (centres unmarked) [Compound 207]
## Output criterion not met

## Input Is the recorded value of CDMF75 IC15 equal to or greater than 4000 nM for this compound? CCc1nc(-c2ccc3c(c2)CC[C@H]3NC(=O)c2cc(C)nn2C)no1 [Compound 567]
## Output criterion not met

## Input Could you tell me if the measured CDMF75 IC15 of CCc1nc(-c2ccc3c(c2)OC[C@H]3NC(=O)N(C)CCO)no1 [Compound 746] reaches 4000 nM or more?
## Output criterion met

## Input CDMF75 IC15 >= 4000 nM for COCc1nc(-c2ccc3c(c2)OC[C@H]3NC(=O)c2ccnc(CO)c2)no1 [Compound 714] ?
## Output criterion not met
